# Test system: BY2 Tobacco cells
# experiment: BY-2 viability assay (PrestoBlue)
# Type: cell-based
# applied-conditions: viability relative to DMSO-treated cells, 25 μM, 48 hours; Table 1
Lab note: compare Tobacco cells BY-2 (relative DMSO) with 20, writing 1 if less and 0 if equal or more.

> print(dat)
                                   compound        target.desc  qualitative.label
1  COc1cccc2c1[C@@H](C(=O)O)CN2S(=O)(=O)/C=C/c1cccc(Cl)c1  BY2 Tobacco cells                  1
2  O=C(O)CC1CN(S(=O)(=O)/C=C/c2ccccc2)c2ccccc21 (stereo not drawn)  BY2 Tobacco cells                  0
3  O=C(O)C1CN(S(=O)(=O)/C=C/c2ccc(Cl)cc2)c2ccccc21 (stereo not drawn)  BY2 Tobacco cells                  0
4  COc1cccc2c1CC(C(=O)O)N2S(=O)(=O)/C=C/c1ccccc1Cl (stereo not drawn)  BY2 Tobacco cells                  1
5  O=C(O)CC1CN(S(=O)(=O)/C=C/c2ccc(Cl)cc2)c2ccccc21 (stereo not drawn)  BY2 Tobacco cells                  1
6  O=C(O)C1Cc2ccccc2CN1S(=O)(=O)/C=C/c1ccccc1 (stereo not drawn)  BY2 Tobacco cells                  0
